# MEASURED ON: G1 APOL1 (Homo sapiens, UniProt O14791, I384M/S342G)
# Construct: expressed in transfected cells
# Sequence (O14791 28-398 S342G/I384M): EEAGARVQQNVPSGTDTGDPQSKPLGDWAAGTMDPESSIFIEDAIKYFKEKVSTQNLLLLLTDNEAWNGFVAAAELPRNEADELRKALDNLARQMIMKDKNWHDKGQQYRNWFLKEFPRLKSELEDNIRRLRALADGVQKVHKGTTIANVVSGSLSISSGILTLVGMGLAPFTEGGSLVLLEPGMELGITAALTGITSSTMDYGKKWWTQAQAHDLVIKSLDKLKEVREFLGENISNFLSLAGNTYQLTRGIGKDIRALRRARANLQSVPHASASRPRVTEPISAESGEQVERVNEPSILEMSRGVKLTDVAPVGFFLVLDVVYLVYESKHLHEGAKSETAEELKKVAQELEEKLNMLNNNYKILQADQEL
# TEST METHOD NOTES: Acute APOL1 Thallium Assay with Inducible Stable Clones of HEK 293 Cells
# Format: cell-based
# CONDITIONS USED: HEK 293 inducible stable clones, G1 APOL1; read-out: Thallium Assay (IC50)
PROPERTY MEASURED: IC50

Record excerpt, results attached:
MOLECULE	IC50
CC(C)(C)OC(=O)NC1(CC(=O)NCCc2c(-c3ccc(F)cc3)[nH]c3c(F)cc(F)cc23)CC1 [Compound 312]	> 1000 nM
C[C@@H](O)CNC(=O)CCc1c(-c2ccc(F)cc2)[nH]c2ccc(F)cc12 [Compound 79]	> 1000 nM
O=C1NCC(C(=O)NCCc2c(-c3ccc(F)cc3)[nH]c3c(F)cc(F)cc23)O1 (stereo not shown) [Compound 337]	> 1000 nM

Looking up NC(=O)C1(C(=O)NCCc2c(-c3ccc(F)cc3)[nH]c3c(F)cc(F)cc23)CC1 [Compound 339] , I found its IC50 recorded as 250 to 1000 nM

Looking up C[C@H](O)CNC(=O)NCCc1c(-c2ccc(F)cc2)[nH]c2c(F)cc(F)cc12 [Compound 284] , I found its IC50 recorded as > 1000 nM

Looking up O=C(NCCc1c(-c2ccc(F)cc2)[nH]c2c(F)cc(F)cc12)NCCS(=O)(=O)O [Compound 263] , I found its IC50 recorded as > 1000 nM

Looking up Cc1occc1CNC(=O)NCCc1c(-c2ccc(F)cc2)[nH]c2c(F)cc(F)cc12 [Compound 295] , I found its IC50 recorded as > 1000 nM

Looking up O=C1CC(NC(=O)CCCc2c(-c3ccc(F)cc3)[nH]c3c(F)cc(F)cc23)CN1 (stereo not shown) [Compound 253] , I found its IC50 recorded as > 1000 nM

Looking up C[C@@H]1NC(=O)[C@H]1NC(=O)CCc1c(-c2ccc(F)cc2)[nH]c2c(F)cc(F)cc12 [Compound 96] , I found its IC50 recorded as 250 to 1000 nM

Looking up O=C1CC(C(=O)NCCc2c(-c3ccc(F)cc3)[nH]c3c(F)cc(F)cc23)CN1 (stereo not shown) [Compound 340] , I found its IC50 recorded as > 1000 nM

Looking up O=C(CCc1c(-c2ccc(F)cc2)[nH]c2c(F)cc(F)cc12)NC1(CCO)CC1 [Compound 154] , I found its IC50 recorded as > 1000 nM

Looking up O=C(NCCc1c(-c2ccc(F)cc2)[nH]c2c(F)cc(F)cc12)C1CC(O)C1 (stereo not shown) [Compound 348] , I found its IC50 recorded as > 1000 nM

Looking up CC(NC(=O)CCc1c(-c2ccc(F)cc2)[nH]c2c(F)cc(F)cc12)c1ccn(C)n1 (racemic) [Compound 133] , I found its IC50 recorded as 250 to 1000 nM

Looking up Cc1cc(F)c2[nH]c(-c3ccc(F)cc3)c(CCC(=O)NC[C@H](O)CO)c2c1 [Compound 226] , I found its IC50 recorded as > 1000 nM

Looking up COCC1(CNC(=O)NCCc2c(-c3ccc(F)cc3)[nH]c3c(F)cc(F)cc23)CC1 [Compound 292] , I found its IC50 recorded as > 1000 nM

Looking up Cc1cnc(NC(=O)CCc2c(-c3ccc(F)cc3)[nH]c3c(F)cc(F)cc23)s1 [Compound 178] , I found its IC50 recorded as > 1000 nM

Looking up O=C(NCCO)OCCc1c(-c2ccc(F)cc2)[nH]c2c(F)cc(F)cc12 [Compound 443] , I found its IC50 recorded as < 250 nM

Looking up O=C(CCc1c(-c2ccc(F)cc2)[nH]c2c(F)cc(Cl)cc12)NC(CO)CO [Compound 212] , I found its IC50 recorded as 250 to 1000 nM

Looking up NC1(C(=O)NCCc2c(-c3ccc(F)cc3)[nH]c3c(F)cc(F)cc23)CCC1 [Compound 349] , I found its IC50 recorded as 250 to 1000 nM

Looking up O=C(NC(CO)CO)OCCc1c(-c2ccc(F)cc2)[nH]c2c(F)cc(F)cc12 [Compound 437] , I found its IC50 recorded as < 250 nM

Looking up NC(=O)C1(NC(=O)OCCc2c(-c3ccc(F)cc3)[nH]c3c(F)cc(F)cc23)CC1 [Compound 473] , I found its IC50 recorded as 250 to 1000 nM

Looking up O=C(NCCc1c(-c2ccc(F)cc2)[nH]c2c(F)cc(F)cc12)C1CNC1=O (stereo not shown) [Compound 350] , I found its IC50 recorded as > 1000 nM
